The origin of these recorded values is PubChem BioAssay (NCATS).

assay: Cytometric Cell-Based qHTS for Inhibitors of the mTORC1 Signaling Pathway in MEF (Tsc2-/-, p53-/-) Cells (AID 2660); details: mTORC1 pathway cytometry; series mostly up to 38.3 µM;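 also: Tsc2 and p53 null MEFs carrying empty vector with compound for 24 h; percent of cells above a phospho-rpS6 to PI ratio cutoff in each well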
Results filed as inconclusive are left out. Active and inactive are the calls of the source. Calls follow the shape of the dose curve; as a rule, active = well fitted curve in the direction sought with a large enough effect; inconclusive = small, poorly fitted or top-dose-only effect, or another doubt; inactive = no such curve, though single readings can be large or run the other way.
QUANTITY MEASURED: outcome

Cn1cnc2c(NCc3ccccc3)nc(NCCO)nc21 | inactive
Nc1ncnc2n[nH]c(Nc3ccc(F)cc3)c12 | inactive
Cc1nn(-c2ccccc2)c(C)c1/C=N/N1CCN(Cc2ccccc2)CC1 | inactive
COc1ccccc1N1CCN(CCN2C(=O)CC3(CCCC3)CC2=O)CC1 | inactive
C[N+](C)(C)CCO | inactive
N[C@@H](Cn1ccc(=O)c(O)c1)C(=O)O | inactive
CN(C)c1cc2c(Nc3ccc4c(cnn4Cc4ccccc4)c3)ncnc2cn1 | inactive
Clc1ccc2c(c1)N=C(N1CCNCC1)c1ccccc1N2 | inactive
O=C1NC(c2cccc([N+](=O)[O-])c2)=CCN1c1ccccc1O | inactive
O=[N+]([O-])c1ccc(-c2nc(-c3ccc(F)cc3)c(-c3ccncc3)[nH]2)cc1 | inactive

Ask: Given "NC(N)=NCCCCN=C(N)N" , state its recorded outcome.
Reply: inactive

---

tested on: Zika virus NS2B-NS3 protease (unlinked); test: Optimization of GU AMC qHTS for Zika virus inhibitors: Unlinked NS2B-NS3 protease assay (AID 1347151); conditions: recombinant ZIKV NS2B-NS3 protease, fluorogenic AMC substrate; series mostly up to 52.5 µM; also: nearly all actives have a fitted effect of over 80% in size
Records with an inconclusive call do not appear. Activity calls are given as the source filed them. The call rests on the fitted dose curve; in most records, active means well fitted inhibition curve with a large enough effect; inconclusive means small, poorly fitted or top-dose-only effect; inactive means no such curve, though single readings can be large or run the other way.
# valid calls are True for active, False for inactive; nothing else

Below, 3 molecules whose answers are already recorded.
O=C1NC(c2cccc([N+](=O)[O-])c2)=CCN1c1ccccc1O | False
Nc1ncnc2n[nH]c(Nc3ccc(F)cc3)c12 | False
NC(N)=NCCCCN=C(N)N | False

Ask: What was the test verdict on "COc1ccccc1N1CCN(CCN2C(=O)CC3(CCCC3)CC2=O)CC1" ?
Reply: False

Ask: Item: "Cc1nn(-c2ccccc2)c(C)c1/C=N/N1CCN(Cc2ccccc2)CC1"
Reply: False

Ask: What would you report for "C[N+](C)(C)CCO" ?
Reply: False

Ask: Note, next up: "COC(=O)C1=CO[C@@H](O)[C@@H]2C(CO)=CC[C@H]12"
Reply: False

Ask: Next entry: "COc1cccc2c1[C@@H]1CN(CCCCn3c(=O)[nH]c4c(sc5ncc(-c6ccccc6)nc54)c3=O)C[C@@H]1CO2"
Reply: False

Ask: Now give it for "COc1c(C)c2c(c(O)c1C/C=C(\C)CCC(=O)OCCN1CCOCC1)C(=O)OC2" too.
Reply: True

Ask: Proceed to "Clc1ccc2c(c1)N=C(N1CCNCC1)c1ccccc1N2"
Reply: False

---

test: qHTS Assay for Identifying Gametocytocidal Compounds (AID 743244); also: potency is read from the fitted curve at half-maximal effect; details: P. falciparum 3D7 stage III-V gametocytes, alamarBlue, 72 h
Inconclusive results are not listed. Activity calls are given as the source filed them. Calls follow the shape of the dose curve; as a rule, active = well fitted curve in the direction sought with a large enough effect; inconclusive = small, poorly fitted or top-dose-only effect, or another doubt; inactive = no such curve, though single readings can be large or run the other way.
QUANTITY MEASURED: Potency

O=[N+]([O-])c1ccc(O)c2ncccc12 | 8.91 µM (active)

// for each molecule in input: emit Potency
1. Nc1ccc2cc3ccc(N)cc3nc2c1
2. Nc1c2ccccc2nc2ccccc12

Reply:
1. 12.6 µM (active)
2. 10 µM (active)

Required: Potency, one value per molecule below.
1. CCCCCCCCCCCCCC[N+](C)(C)C
2. CCCCCCCCCCCC[N+](C)(C)Cc1ccccc1

Reply:
14.1 µM (active)
5.01 µM (active)

---

Assay: qHTS of pediatric cancer cell lines to identify multiple opportunities for drug repurposing: Confirmatory screen for BT-12 cells (AID 1347112);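 also: viability read after 48 h of compound exposure; nearly all actives have a fitted effect of over 55% in size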
Details: BT-12 rhabdoid tumor cells, viability; series mostly up to 45.9 µM
Experimental: Drug repurposing or repositioning has been offered as a strategy for drug development in oncology programs. […] [1] Shen, M et al. Quantitative high-throughput phenotypic screening of pediatric cancer cell lines identifies multiple opportunities for drug repurposing. […] Cells were assayed in growth media at a density of 500-1,000 cells/well. […] After a 15 min incubation at room temperature, samples were analyzed for luminescence intensity using a ViewLux High-throughput CCD imager equipped with clear filters.
Results filed as inconclusive are left out. Calls of active or inactive are those of the source. The call rests on the fitted dose curve; in most records, active means well fitted cell-killing curve with a large enough effect; inconclusive means small, poorly fitted or top-dose-only effect; inactive means flat fitted curve, though single readings scatter.
Use one of these outcomes when replying: Y (active), N (inactive)

CCC(=O)O[C@]1(C(=O)COC)[C@@H](C)C[C@H]2[C@@H]3CCC4=CC(=O)C=C[C@]4(C)C3(F)[C@@H](O)C[C@@]21C (stereo not given in full) | N
CCC1=C[C@@H]2CN(C1)Cc1c([nH]c3ccccc13)[C@@](C(=O)OC)(c1cc3c(cc1OC)N(C)[C@H]1[C@@](O)(C(=O)OC)[C@H](OC(C)=O)[C@]4(CC)C=CCN5CC[C@]31[C@@H]54)C2 | Y
CCN(CC)CC(=O)OCC(=O)[C@@]1(O)CC[C@H]2[C@@H]3CCC4=CC(=O)CC[C@]4(C)[C@H]3[C@@H](O)C[C@@]21C | N
CN(C)CCN(Cc1ccsc1)c1ccccn1 | N

Next, consider the following compound.
Ask: Call for entry CCCCC(CC)CNC(=O)CC(C)OC(=O)CCC(=O)O (stereo not given) :
Reply: N

---

experiment: Primary qHTS for inhibitors of nuclear receptor binding SET domain protein 2 (NSD2) in an isogenic RCH-ACV NSD2 p.E1099K mutant (9B) (AID 1645876); conditions: RCH-ACV (leukaemia line) NSD2 E1099K (9B) viability, CellTiter-Glo, 72 h; series mostly up to 44.9 µM; also: nearly all actives have a fitted effect of over 70% in size
Inconclusive results are not listed. Activity calls are given as the source filed them. Calls come from the whole dose curve; as a rule, active = well fitted inhibition curve with a large enough effect; inconclusive = small, poorly fitted or top-dose-only effect; inactive = flat fitted curve, though single readings scatter.
A correct response names exactly one class from active, inactive

Before answering, review these 8 worked examples.
Cc1cc(O)c2c(O)c3c(O)cccc3cc2c1 | inactive
CC(=O)O[C@H]1CC[C@@]2(C)C(=CC[C@@H]3[C@@H]2CC[C@]2(C)C(C(C)=O)=CC[C@@H]32)C1 | inactive
O=c1[nH]c(=O)n([C@H]2O[C@H](CO)[C@@H](O)[C@@H]2O)cc1/C=C\Br | inactive
CCN1CCN(C(=O)N[C@@H](C(=O)N[C@@H]2C(=O)N3[C@@H]2SC(C)(C)[C@H]3C(=O)O)c2ccccc2)C(=O)C1=O | inactive
O=C(O)[C@@H](O)[C@H](O)[C@H](O)[C@@H](O)C(=O)O | inactive
CN1CC(=O)N2[C@H](c3ccc4c(c3)OCO4)c3[nH]c4ccccc4c3C[C@@H]2C1=O | inactive
CCc1cc2cc(OC)c(OC)cc2c(Cc2ccccc2)n1 | active
CC(=O)N[C@@H](CCC(N)=O)C(=O)O | inactive

Ask: Please indicate how the test categorized "Cc1nc(N)nc(N)c1-c1ccc(Cl)c(Cl)c1" .
Reply: active

Ask: And then "Oc1ccccc1" , what is it?
Reply: inactive

---

assay: qHTS of pediatric cancer cell lines to identify multiple opportunities for drug repurposing: Primary screen for OHS-50 cells (AID 1347103); conditions: OHS-50 osteosarcoma viability, CellTiter-Glo luminescence, 48 h; series mostly up to 57.3 µM; also: nearly all actives have a fitted effect of over 40% in size
Inconclusive results are not listed. Active and inactive are the calls of the source. The call rests on the fitted dose curve; in most records, active means well fitted cell-killing curve with a large enough effect; inconclusive means small, poorly fitted or top-dose-only effect; inactive means no such curve, though single readings can be large or run the other way.
Answer with one of the outcomes given here: active, inactive

Here are 5 compounds together with their reported answers.
CCCCCCCCCCCCCCCCCCNC(=O)OC1CCN(C(=O)OC[C@H](COC(=O)N(Cc2cccc[n+]2CC)C(=O)c2ccccc2OC)OC)CC1 | active
CCOC(=O)C(=O)CCc1ccccc1 | inactive
O=C(c1ccco1)N1CCNCC1 | inactive
CCN(CC)C(=O)C1CN2CCc3cc(OC)c(OC)cc3C2CC1OC(C)=O (stereo not given) | inactive
O=C(Nc1ccc(Cl)cc1)Nc1ccc(Cl)c(C(F)(F)F)c1 | active

Ask: Record lookup: outcome of this test for CC(=O)/C=C/C=C1/C2CCC(C2)C1(C)C (stereo not given) ?
Reply: inactive

---

test system: PA-1; experiment: Primary qHTS to identify gynecologic anti-cancer compounds using libraries of approved drugs and bioactive compounds (AID 1345084); details: Gynecologic cancer cell panel viability, ATPlite luminescence, 48 h; series mostly up to 57.5 µM; also: nearly all actives have a fitted effect of over 55% in size
Records with an inconclusive call do not appear. Activity calls are given as the source filed them. The call rests on the fitted dose curve; in most records, active means well fitted cell-killing curve with a large enough effect; inconclusive means small, poorly fitted or top-dose-only effect, or effect the other way; inactive means flat fitted curve, though single readings scatter.
Lab note: assign the record to one of active, inactive

Consider the worked cases shown below.
CCO[C@H](Cc1ccc(OCCc2ccc(OS(C)(=O)=O)cc2)cc1)C(=O)O | inactive
COC(=O)c1cc(Cl)c(NC(C)=O)cc1OC | inactive

Ask: Which outcome did this test record for the compound "Nc1ncnc2n[nH]c(Nc3ccc(F)cc3)c12" ?
Reply: active

---

test system: HeLa; experiment: Primary qHTS to identify gynecologic anti-cancer compounds using libraries of approved drugs and bioactive compounds (AID 1345084); conditions: Gynecologic cancer cell panel viability, ATPlite luminescence, 48 h; series mostly up to 57.5 µM; also: nearly all actives have a fitted effect of over 55% in size
Inconclusive results are not listed. Calls of active or inactive are those of the source. The call rests on the fitted dose curve; in most records, active means well fitted cell-killing curve with a large enough effect; inconclusive means small, poorly fitted or top-dose-only effect, or effect the other way; inactive means flat fitted curve, though single readings scatter.
Respond using exactly one of the listed classes: T for active, F for inactive

Nc1c(I)cc(I)c(C(=O)N(CCC(=O)O)c2ccccc2)c1I | F
C=C(C)C(=O)OCC(O)CO (centres undefined) | F
Clc1ccc2c(c1)N=C(N1CCNCC1)c1ccccc1N2 | F
CCS(=O)(=O)c1ccc(OC)c(C(=O)OC)c1 | F
CCOC(=O)Oc1ccc(CCNC(=O)[C@H](CCSC)NC(C)=O)cc1OC(=O)OCC | F
COC(=O)c1cc(Cl)ccc1OC | F

Ask: Recorded call for "CC(C)=CCNc1ncnc2c1ncn2[C@@H]1O[C@H](CO)[C@@H](O)[C@H]1O" ?
Reply: T

Ask: And then "CCCC(=O)O[C@]1(C(=O)CC)CC[C@H]2[C@@H]3CCC4=CC(=O)CC[C@]4(C)[C@H]3[C@@H](O)C[C@@]21C" , what is it?
Reply: F

Ask: And what about the compound CC1(C)S[C@@H]2[C@H](NC(=O)C(c3ccccc3)S(=O)(=O)O)C(=O)N2[C@H]1C(=O)O (some centres undefined) ?
Reply: F

Ask: # iterate: COc1cc(C(=O)OC(COCCC(C)C)CN2CCOCC2)cc(OC)c1OC (centres undefined)
Reply: F

Ask: Field entry: "O=C(Nc1ccc(S(=O)(=O)N2CCOCC2)cc1)c1cc(Cl)ccc1NS(=O)(=O)c1ccc(Cl)s1"
Reply: F

Ask: What about "Nc1cc(C(F)(F)F)ccc1S" ?
Reply: F

Ask: Same again, this time with "CCCCOC(=O)CCCCCCCCC(=O)OCCCC"
Reply: F

Ask: Queued: "CCOC(=O)NNc1nncc2ccccc12"
Reply: F
